- Test system: johnsongrass (Sorghum halepense)
- assay_remarks: Test B pre-/postemergence plant response
- Assay type: in vivo
- recorded_conditions: Preemergence, 125 g ai/ha; 0 to 100 scale
reported_metric: Johnsongrass plant response rating
Enter a number only.

Check out these entries, answers already filled in.
[[record]]
line_notation = "O=C1CCCC(O)=C1C(=O)c1cnc(-c2ccccc2)n(-c2ccccc2Br)c1=O"
subject_of_test = "johnsongrass (Sorghum halepense)"
reported_metric = "Johnsongrass plant response rating"
observed_result = 45

[[record]]
line_notation = "O=C1CCCC(O)=C1C(=O)c1cnc(-c2ccccc2)n(-c2ccccc2)c1=O"
subject_of_test = "johnsongrass (Sorghum halepense)"
reported_metric = "Johnsongrass plant response rating"
observed_result = 80

[[record]]
line_notation = "Cc1ccc(F)c(-n2c(-c3ccccc3)ncc(C(=O)C3=C(O)CCCC3=O)c2=O)c1"
subject_of_test = "johnsongrass (Sorghum halepense)"
reported_metric = "Johnsongrass plant response rating"
observed_result = 75


# next compound below
Incoming: Give the measured Johnsongrass plant response rating for `CCCn1c(-c2ccccc2)ncc(C(=O)C2=C(O)CCCC2=O)c1=O`
Outgoing: 90

---

Each entry below carries its reported Plant response rating, Oat, Wild.
- Test system: wild oat (Avena fatua)
- assay_remarks: Test B pre-/postemergence plant response
- Type: in vivo
- recorded_conditions: Postemergence, 125 g ai/ha; scale 0 to 100 (0 no effect, 100 complete control)

Check out these entries, answers already filled in.
[[record]]
compound = "O=C1CCCC(O)=C1C(=O)c1cnc(-c2cccs2)n(CC2CCCO2)c1=O (centres unmarked)"
observed_result = 30

[[record]]
compound = "O=C1CCCC(O)=C1C(=O)c1cnc(C2CC2)n(C2CCCCC2)c1=O"
observed_result = 50

[[record]]
compound = "COCCn1c(-c2ccco2)ncc(C(=O)C2=C(O)CCCC2=O)c1=O"
observed_result = 0

[[record]]
compound = "COCCCn1c(-c2cccc(F)c2)ncc(C(=O)C2=C(O)CCCC2=O)c1=O"
observed_result = 35


Incoming: Output reported Plant response rating, Oat, Wild of the compound `Cc1ccc(-n2c(-c3cc(F)cc(F)c3)ncc(C(=O)C3=C(O)CCCC3=O)c2=O)cc1` on wild oat (Avena fatua).
Outgoing: 45

---

Each entry below carries its reported Kochia plant response rating (0 to 100 scale).
- Tested on: kochia (Kochia scoparia)
- assay_remarks: Test B pre-/postemergence plant response
- Assay type: in vivo
- recorded_conditions: 62 g ai/ha, postemergence; 0 is no effect, 100 is complete control; 13 to 15 days
Enter a number only.

[[record]]
line_notation = "CCCn1c(-c2cccc(OC)c2)ncc(C(=O)C2=C(O)CCCC2=O)c1=O"
observed_result = 95

[[record]]
line_notation = "COCCCn1c(-c2ccccc2)ncc(C(=O)C2=C(O)CCCC2=O)c1=O"
observed_result = 80


Incoming: Give the measured Kochia plant response rating (0 to 100 scale) for `CCOCCn1c(-c2ccccc2)ncc(C(=O)C2=C(O)CCCC2=O)c1=O`
Outgoing: 85

Incoming: Give the measured Kochia plant response rating (0 to 100 scale) for `CCCn1c(-c2cccc(F)c2)ncc(C(=O)C2=C(O)CCCC2=O)c1=O`
Outgoing: 98

Incoming: Give the measured Kochia plant response rating (0 to 100 scale) for `O=C1CCCC(O)=C1C(=O)c1cnc(-c2cccc(Br)c2)n(-c2ccccc2)c1=O`
Outgoing: 70

Incoming: Give the measured Kochia plant response rating (0 to 100 scale) for `CCn1c(-c2cc(F)cc(F)c2)ncc(C(=O)C2=C(O)CCCC2=O)c1=O`
Outgoing: 0

Incoming: Give the measured Kochia plant response rating (0 to 100 scale) for `O=C1CCCC(O)=C1C(=O)c1cnc(C2CC2)n(-c2ccccc2)c1=O`
Outgoing: 100

---

Each entry below carries its reported pest or weed control at 500 g/ha.
- System: pigweed (Amaranthus retroflexus)
- assay_remarks: Test A pre-/postemergence plant response
- Format: in vivo
- recorded_conditions: Amaranthus retroflexus, post-emergence, 240 h; Postemergence, 500 g ai/ha; 0 to 100 scale, 0 = no effect, 100 = complete control; approx. ten days; read-out: Plant response rating, Pigweed
Answer in %, number only, no unit symbol.

Check out these entries, answers already filled in.
[[record]]
compound = "O=C1CCCC(O)=C1C(=O)c1cnc(-c2ccccc2)n(C2CCCCC2)c1=O [Compound 128]"
reported_metric = "pest or weed control at 500 g/ha"
result_unit = "%"
observed_result = 100

[[record]]
compound = "COCCCn1c(-c2ccccc2)ncc(C(=O)C2=C(O)CCCC2=O)c1=O [Compound 81]"
reported_metric = "pest or weed control at 500 g/ha"
result_unit = "%"
observed_result = 100

[[record]]
compound = "CCn1ncc(C(=O)c2cnc(-c3ccccc3)n(Cc3ccccc3)c2=O)c1O [Compound 20]"
reported_metric = "pest or weed control at 500 g/ha"
result_unit = "%"
observed_result = 50


# next compound below
Incoming: Output reported pest or weed control at 500 g/ha of the compound COCCn1c(-c2ccsc2)ncc(C(=O)C2=C(O)CCCC2=O)c1=O [Compound 97] on pigweed (Amaranthus retroflexus).
Outgoing: 100

---

Each entry below carries its reported Plant response rating, Foxtail, Giant.
- System: giant foxtail (Setaria faberii)
- assay_remarks: Test A pre-/postemergence plant response
- Format: in vivo
- recorded_conditions: Postemergence, 125 g ai/ha; 0 to 100 scale where 0 is no effect and 100 is complete control
Enter a number only.

[[record]]
compound = "CCn1c(-c2cc(F)cc(F)c2)ncc(C(=O)C2=C(O)CCCC2=O)c1=O"
observed_result = 70

[[record]]
compound = "Cc1c(F)cccc1-n1c(-c2ccccc2)ncc(C(=O)C2=C(O)C3CCC(C3)C2=O)c1=O (stereo not shown)"
observed_result = 70

[[record]]
compound = "C#CCn1c(-c2cc(F)cc(F)c2)ncc(C(=O)C2=C(O)CCCC2=O)c1=O"
observed_result = 50


# next compound below
Incoming: Give the measured Plant response rating, Foxtail, Giant for CCCCn1c(-c2cccc(C)c2)ncc(C(=O)C2=C(O)C3CCC(C3)C2=O)c1=O (stereo not shown)
Outgoing: 60

---

- Test system: bermudagrass (Cynodon dactylon)
- assay_remarks: Test B pre-/postemergence plant response
- Type: in vivo
- recorded_conditions: Preemergence, 125 g ai/ha; scale 0 to 100, 0 no effect, 100 complete control
reported_metric: Plant response rating, Bermudagrass
Enter a number only.

[[record]]
molecule = "CCCCn1c(CCC)ncc(C(=O)C2=C(O)CCCC2=O)c1=O [Compound 75]"
observed_result = 100

[[record]]
molecule = "COCCCn1c(-c2cc(F)cc(F)c2)ncc(C(=O)C2=C(O)C3CCC(C3)C2=O)c1=O (stereo not shown) [Compound 244]"
observed_result = 100

[[record]]
molecule = "CCc1cccc(-n2c(-c3ccccc3)ncc(C(=O)C3=C(O)CCCC3=O)c2=O)c1 [Compound 220]"
observed_result = 98


# next molecule below
Incoming: Give the measured Plant response rating, Bermudagrass for O=C1CCCC(O)=C1C(=O)c1cnc(-c2cccs2)n(-c2ccccc2)c1=O [Compound 66]
Outgoing: 98

---

- System: corn (Zea mays)
- assay_remarks: Test A pre-/postemergence plant response
- Type: in vivo
- recorded_conditions: Postemergence, 125 g ai/ha; 0 to 100 scale where 0 is no effect and 100 is complete control
Each entry below carries its reported Plant response rating, Corn.
Enter a number only.

Check out these entries, answers already filled in.
[[record]]
compound = "CCCn1c(-c2ccccc2F)ncc(C(=O)C2=C(O)CCCC2=O)c1=O [Compound 101]"
observed_result = 0

[[record]]
compound = "CCCn1c(-c2cccc(F)c2)ncc(C(=O)C2=C(O)CCCC2=O)c1=O [Compound 127]"
observed_result = 20

[[record]]
compound = "O=C1CCCC(O)=C1C(=O)c1cnc(-c2ccc(F)c(F)c2)n(C2CCCCC2)c1=O [Compound 198]"
observed_result = 0


Incoming: Output reported Plant response rating, Corn of the compound CCCn1c(C2CC2)ncc(C(=O)C2=C(O)CCCC2=O)c1=O [Compound 153] on corn (Zea mays).
Outgoing: 0

---

- Tested on: galium (catchweed bedstraw, Galium aparine)
- assay_remarks: Test B pre-/postemergence plant response
- Assay type: in vivo
- recorded_conditions: Preemergence, 62 g ai/ha; scale 0 to 100, 0 no effect, 100 complete control
reported_metric: Plant response rating, Galium
Enter a number only.

Check out these entries, answers already filled in.
[[record]]
molecule = "O=C1CCCC(O)=C1C(=O)c1cnc(-c2cccnc2)n(-c2ccccc2)c1=O [Compound 113]"
observed_result = 70

[[record]]
molecule = "Cc1cccc(-n2c(-c3ccccc3)ncc(C(=O)C3=C(O)CCCC3=O)c2=O)c1F [Compound 58]"
observed_result = 0

[[record]]
molecule = "O=C1CCCC(O)=C1C(=O)c1cnc(-c2cccs2)n(-c2ccccc2)c1=O [Compound 66]"
observed_result = 0


Incoming: Output reported Plant response rating, Galium of the molecule CCCc1ncc(C(=O)C2=C(O)CCCC2=O)c(=O)n1-c1ccccc1 [Compound 217] on galium (catchweed bedstraw, Galium aparine).
Outgoing: 10
